// data source = ChEMBL document CHEMBL3988442

SYSTEM_TESTED: Shiga toxin 2 (Escherichia coli O157:H7) (UniProt P09385+P09386)
ASSAY_DETAILS: E. coli 0.157:H7 Shiga Toxin SOP - stx2 screening assay
Format: functional
Parameters: scale not given: direction of the effect not stated beside the values
RUN_PARAMETERS: 30 µM
READOUT_KIND: Percent Effect (%)
Express it in %; write the number only.

O=C(c1ccccn1)N1Cc2nccn2CC(COc2cccnc2)C1 (configuration not stated)
-14.8
CN1CCN(C(=O)NC2CC2)Cc2cccnc21
-32.5

Asked: Give the measured Percent Effect of COCCCN(C)Cc1nc2c(cnn2C)c(=O)[nH]1 .
Given back: -15.2

###

SYSTEM_TESTED: Aspartate--tRNA(Asp/Asn) ligase (Mycobacterium tuberculosis (strain ATCC 25618 / H37Rv)) (UniProt P9WFW3); further: in the data most compounds retested in dose-response had high values
Sequence (P9WFW3 whole entry): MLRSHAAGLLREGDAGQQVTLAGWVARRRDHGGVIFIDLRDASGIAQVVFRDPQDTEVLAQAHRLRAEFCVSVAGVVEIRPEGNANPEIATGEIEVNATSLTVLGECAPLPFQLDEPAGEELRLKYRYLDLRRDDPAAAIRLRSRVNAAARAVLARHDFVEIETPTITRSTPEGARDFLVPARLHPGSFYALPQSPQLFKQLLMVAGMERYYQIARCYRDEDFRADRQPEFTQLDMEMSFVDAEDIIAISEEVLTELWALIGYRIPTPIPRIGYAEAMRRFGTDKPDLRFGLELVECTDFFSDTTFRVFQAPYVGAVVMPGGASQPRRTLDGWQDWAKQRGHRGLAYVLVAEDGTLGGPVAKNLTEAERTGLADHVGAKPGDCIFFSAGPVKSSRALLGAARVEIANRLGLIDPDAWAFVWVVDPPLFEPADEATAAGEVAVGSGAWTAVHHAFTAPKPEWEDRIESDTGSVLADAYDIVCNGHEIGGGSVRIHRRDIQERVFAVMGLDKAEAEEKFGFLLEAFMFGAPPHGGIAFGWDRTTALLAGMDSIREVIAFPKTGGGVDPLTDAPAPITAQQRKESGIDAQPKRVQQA
ASSAY_DETAILS: Assay for Asp RNA synthetase-1 from Mycobacterium tuberculosis
Format: functional
Parameters: scale not given: direction of the effect not stated beside the values
RUN_PARAMETERS: 30 µM
Entries and their Percent Effect
Express it in %; write the number only.

These recorded examples may help you get a feel for the data.
CN1CCC2(COCc3cnc(N4CCOCC4)nc32)C1 (configuration not stated)
-1.51
Cc1cccc(N2Cc3nc(=O)[nH]n3C2=O)c1
-3.43
O=C(NCCCN1CCCC1)c1n[nH]c(=O)c2ccccc12
-3.43
COc1ncccc1CNC(=O)c1cccc(C)n1
-1.63
O=C(COc1cccc(Br)c1)N1CCN(c2nccs2)CC1
1.41

Asked: Give the measured Percent Effect of CCc1nc(CC(=O)N2CCn3c(nnc3C(C)C)C2)cs1 .
Given back: -0.367

Asked: Give the measured Percent Effect of COc1ccccc1C(O)CNC(=O)Nc1ncccc1C (configuration not stated) .
Given back: -3.63

Asked: Give the measured Percent Effect of N#Cc1ncn(CCC(=O)Nc2c(Cl)cccc2Cl)n1 .
Given back: 6.68

Asked: Give the measured Percent Effect of CC(C)NC(=O)N1CCC(n2ccc(C(F)(F)F)n2)CC1 .
Given back: -2.88

Asked: Give the measured Percent Effect of O=C(c1cc(Cl)c2c(c1)OCO2)N1CCN(c2nccs2)CC1 .
Given back: -0.23

Asked: Give the measured Percent Effect of Cc1cc(C)c(OCC(=O)NS(=O)(=O)c2cccnc2)c(C)c1 .
Given back: -4.5

Asked: Give the measured Percent Effect of O=C(CCN1CCCC1c1cccs1)N1CCc2sccc2C1 (configuration not stated) .
Given back: -0.954

###

SYSTEM_TESTED: Shiga toxin 2 (Escherichia coli O157:H7) (UniProt P09385+P09386)
ASSAY_DETAILS: E. coli 0.157:H7 Shiga Toxin SOP - stx2 screening assay
Format: functional
Parameters: scale not given: direction of the effect not stated beside the values
RUN_PARAMETERS: 30 µM
READOUT_KIND: Percent Effect (%)
Express it in %; write the number only.

Asked: Give the measured Percent Effect of O=c1nc(SCc2ccncc2)c2c(n1CCO)CCCC2 .
Given back: -5.81

Asked: Give the measured Percent Effect of CC(C(=O)N1CCCN(Cc2ccc(C#N)cc2)CC1)n1ccnc1 (stereo not drawn) .
Given back: 29.9

Asked: Give the measured Percent Effect of CNc1snc(C)c1C(=O)N1CCCC(n2nc(C)cc2C)C1 (stereo not drawn) .
Given back: -3.59
